Source of measurements: patent US20100260765A1

- TEST_SYSTEM: human KDR (human, UniProt P35968 20-1356)
- Sequence (P35968 20-1356): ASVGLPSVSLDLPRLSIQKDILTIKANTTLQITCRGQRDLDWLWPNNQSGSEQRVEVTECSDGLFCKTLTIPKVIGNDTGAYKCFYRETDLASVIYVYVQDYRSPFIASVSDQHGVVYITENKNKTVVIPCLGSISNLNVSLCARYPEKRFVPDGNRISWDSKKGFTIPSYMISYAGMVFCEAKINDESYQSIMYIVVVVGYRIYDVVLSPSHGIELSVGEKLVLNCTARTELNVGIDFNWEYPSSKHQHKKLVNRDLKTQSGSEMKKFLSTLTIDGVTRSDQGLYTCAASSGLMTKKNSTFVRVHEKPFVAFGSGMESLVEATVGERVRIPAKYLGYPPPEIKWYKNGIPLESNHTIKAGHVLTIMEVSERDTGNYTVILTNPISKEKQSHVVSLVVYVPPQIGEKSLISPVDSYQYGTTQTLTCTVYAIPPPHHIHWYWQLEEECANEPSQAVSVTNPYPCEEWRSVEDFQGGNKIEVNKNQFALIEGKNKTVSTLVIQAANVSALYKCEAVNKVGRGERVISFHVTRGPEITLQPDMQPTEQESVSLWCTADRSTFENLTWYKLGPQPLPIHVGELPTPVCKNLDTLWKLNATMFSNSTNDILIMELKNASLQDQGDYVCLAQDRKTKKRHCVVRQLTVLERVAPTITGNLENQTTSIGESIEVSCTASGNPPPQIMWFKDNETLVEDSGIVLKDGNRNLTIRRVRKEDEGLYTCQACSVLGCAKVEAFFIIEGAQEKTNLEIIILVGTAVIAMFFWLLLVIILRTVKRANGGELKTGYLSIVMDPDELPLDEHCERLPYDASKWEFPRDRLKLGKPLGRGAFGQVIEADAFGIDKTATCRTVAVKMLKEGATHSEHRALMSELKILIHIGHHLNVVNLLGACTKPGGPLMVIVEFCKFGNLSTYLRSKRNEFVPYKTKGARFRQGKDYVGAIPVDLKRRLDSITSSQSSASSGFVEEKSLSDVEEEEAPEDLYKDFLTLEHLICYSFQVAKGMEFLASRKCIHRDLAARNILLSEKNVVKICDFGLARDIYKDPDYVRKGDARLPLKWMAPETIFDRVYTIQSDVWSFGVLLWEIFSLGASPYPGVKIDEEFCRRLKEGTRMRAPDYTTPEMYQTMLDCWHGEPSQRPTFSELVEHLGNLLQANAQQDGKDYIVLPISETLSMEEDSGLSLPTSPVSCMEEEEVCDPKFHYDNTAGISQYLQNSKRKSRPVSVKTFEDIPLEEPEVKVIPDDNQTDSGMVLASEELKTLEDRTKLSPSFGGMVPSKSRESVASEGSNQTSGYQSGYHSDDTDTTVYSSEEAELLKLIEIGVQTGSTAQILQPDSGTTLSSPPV
- ASSAY_EXPLANATION: cell-based or functional assay
PROPERTY_MEASURED: 6-keto Prostaglandin F1α release, EC50 (nM), N = 1
Give the quantity in nM, number only.

Which 6-keto Prostaglandin F1α release, EC50 (nM), N = 1 reading was recorded for the binder 33E1 (antibody, V domains shown, Fully human monoclonal antibody from a XenoMouse hybridoma (IgG2 or IgG4 strain), purified) VH: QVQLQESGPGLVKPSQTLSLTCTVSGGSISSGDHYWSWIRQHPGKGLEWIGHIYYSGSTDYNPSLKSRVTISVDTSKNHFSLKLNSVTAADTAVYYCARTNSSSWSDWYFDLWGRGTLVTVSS VL: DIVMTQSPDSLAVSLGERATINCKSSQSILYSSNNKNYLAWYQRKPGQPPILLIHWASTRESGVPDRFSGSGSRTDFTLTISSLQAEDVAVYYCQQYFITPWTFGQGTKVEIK ?
4.8

Please look up its 6-keto Prostaglandin F1α release, EC50 (nM), N = 1: 21H6 (antibody, V domains shown, Fully human monoclonal antibody from a XenoMouse hybridoma, purified) VH: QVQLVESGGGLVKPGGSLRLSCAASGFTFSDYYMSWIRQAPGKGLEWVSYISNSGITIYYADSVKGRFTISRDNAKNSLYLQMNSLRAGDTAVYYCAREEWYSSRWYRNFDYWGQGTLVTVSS VL: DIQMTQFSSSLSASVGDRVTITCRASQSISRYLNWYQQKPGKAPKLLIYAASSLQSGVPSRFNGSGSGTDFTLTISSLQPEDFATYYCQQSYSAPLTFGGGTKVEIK
7.3

Item under review: 22B8 (antibody, V domains shown, Fully human monoclonal antibody from a XenoMouse hybridoma (IgG2 or IgG4 strain), purified) VH: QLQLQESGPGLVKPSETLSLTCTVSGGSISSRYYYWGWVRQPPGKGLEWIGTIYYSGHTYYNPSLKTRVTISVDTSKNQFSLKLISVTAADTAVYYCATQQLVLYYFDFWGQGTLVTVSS VL: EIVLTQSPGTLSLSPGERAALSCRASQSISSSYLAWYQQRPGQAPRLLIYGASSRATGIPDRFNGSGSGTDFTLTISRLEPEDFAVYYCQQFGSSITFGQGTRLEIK . Reported 6-keto Prostaglandin F1α release, EC50 (nM), N = 1?
5.1
